system: Sentrin-specific protease 8 (Homo sapiens)
test.description: blockers of human SENP8 peptidase activity – biochemical, luminescence, primary screen (AID 2540)
test.conditions: purified SENP8, Z-RLRGG-aminoluciferin cleavage, at 10 µM
The whole screen tested about 330,000 compounds, of which about 4,100 (1.2%) were called active. Cut-off read from the data, not from the text of the source: active = inhibition above about 50%; inactive = the rest. This excerpt belongs to a sample that is enriched for actives.
Respond using exactly one of the listed classes: active, inactive

Look over these answered cases.
compound | assigned.class
CC(C)(C)C(=O)CSc1ccc(S(=O)(=O)N2CCCC2)cn1 | inactive
NC(=O)CC[C@@H]1NC(=O)[C@@H]2CCCN2C(=O)c2cc([N+](=O)[O-])cc(F)c2NCCC[C@@H](C(N)=O)NC1=O | inactive
COc1ccc(N(CC(=O)NC2CCCC2)C(=O)CS(=O)CC(=O)Nc2ccc3c(c2)OCO3)cc1 (stereo unspecified) | inactive
CC(C)c1ccc(C(=O)OC2CCOC2=O)cc1 (stereo unspecified) | inactive
COc1cc(C(=O)OC2CCOC2=O)c([N+](=O)[O-])cc1OC (stereo unspecified) | inactive
Cc1ccc(-c2nc(CSCC(=O)NC3CCN(Cc4ccccc4)CC3)c(C)o2)cc1 | inactive
CCOC(=O)c1ccc(Nc2cc(C)nc3nc(C)nn23)cc1 | inactive
C/C(=N\NC(=O)c1ccc(C)cc1)C1C(=O)c2ccccc2C1=O | active

Any idea what this test logged for CCOC(=O)c1ccc(NC(=O)c2c(NCc3ccccc3)[nH]c(=O)[nH]c2=O)cc1 ? inactive

Any idea what this test logged for COC(=O)CNC(c1ccccc1Cl)c1cc(Br)ccc1NC(=O)CCN1CCOCC1 (stereo unspecified) ? inactive

Any idea what this test logged for Cc1c(C(=O)N(C)CCc2cnn(C)c2)oc2c(F)cccc12 ? inactive

Any idea what this test logged for O=C(OC1CCOC1=O)c1ccc(-c2nc3ccccc3s2)s1 (stereo unspecified) ? active

====

system: Sentrin-specific protease 8 (Homo sapiens) (UniProt Q96LD8)
Sequence (Q96LD8 whole entry, looked up): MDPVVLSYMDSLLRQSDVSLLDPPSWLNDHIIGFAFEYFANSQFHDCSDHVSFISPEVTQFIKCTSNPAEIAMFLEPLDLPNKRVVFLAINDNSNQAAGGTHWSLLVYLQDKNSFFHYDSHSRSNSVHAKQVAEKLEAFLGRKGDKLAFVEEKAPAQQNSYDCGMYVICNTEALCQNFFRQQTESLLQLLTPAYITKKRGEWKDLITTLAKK
test.description: blockers of human SENP8 peptidase activity – biochemical, luminescence, primary screen (AID 2540)
test.conditions: purified SENP8, Z-RLRGG-aminoluciferin cleavage, at 10 µM, active compounds read high
In all, about 330,000 compounds went through this assay and about 4,100 (1.2%) were called active. Only a selection was taken, and actives are over-represented in it overall.
quantity: inhibition (%)
Numeric only. Scale: %

Some entries whose results are on file:
molecule | scale.unit | assay.result
Cc1csc(NC(=O)c2ccc(C)s2)n1 | % | -2.73
Cc1ccc(NC(=O)CN(C)C(=O)c2ccc(Cl)c(S(=O)(=O)NCc3ccco3)c2)cc1 | % | -1.14
Oc1c(C=Nc2cccc3nsnc23)ccc2ccccc12 | % | 75.8
COc1cc(SC)ccc1C(=O)Nc1nc(C)cs1 | % | 97.6
O=C(Nc1ccc(NC(=O)c2ccc3c(c2)OCO3)cc1)c1cccc(Cl)c1 | % | -4.6

Please look at the following molecule next.
Look up inhibition: COc1ccccc1NC(=O)CCC(=O)OC(C)C(=O)c1ccccc1 (stereo unspecified) -4.92

====

system: Sentrin-specific protease 8 (Homo sapiens) (UniProt Q96LD8)
test.description: blockers of human SENP8 peptidase activity – biochemical, luminescence, primary screen (AID 2540)
test.conditions: purified SENP8, Z-RLRGG-aminoluciferin cleavage, at 10 µM, active compounds read high
About 4,100 (1.2%) of roughly 330,000 compounds were called active. The sample holds actives, similar compounds and a random draw of the others, so the mix is not that of the screen.
Measured inhibition, listed per entry for reference.
Numeric only. Scale: %

Look up inhibition: Cc1ccc(C(=O)NNC2=Nc3cc([N+](=O)[O-])ccc3OC2)cc1 -6.4

====

system: Sentrin-specific protease 8 (Homo sapiens) (UniProt Q96LD8)
test.description: blockers of human SENP8 peptidase activity – biochemical, luminescence, primary screen (AID 2540)
test.conditions: purified SENP8, Z-RLRGG-aminoluciferin cleavage, at 10 µM
Hit rate of the full screen: of about 330,000 compounds, about 4,100 (1.2%) were called active. No stated cut-off is given here; in the data, active means inhibition above about 50%; inactive means the rest. The sample holds actives, similar compounds and a random draw of the others, so the mix is not that of the screen.
Respond using exactly one of the listed classes: active, inactive

Look over these answered cases.
molecule | assigned.class
COc1ccccc1N1CC(O)=C(c2nc3ccccc3s2)C1=N | inactive
COc1ccccc1OCc1nc2ccccc2s1 | active
CN(Cc1nc2ccccc2s1)C(=O)c1ccc(F)cc1 | inactive

Any idea what this test logged for NC(=O)c1ccc(Nc2ccc3c(c2)CCC3)c([N+](=O)[O-])c1 ? inactive

Any idea what this test logged for CCc1cc(CNC(=O)CC2C(=O)NCCN2CC2CCCCC2)on1 (stereo unspecified) ? inactive

Any idea what this test logged for COCCOC(=O)c1sc(=S)n(CCOC)c1N ? inactive

====

system: Sentrin-specific protease 8 (Homo sapiens) (UniProt Q96LD8)
test.description: blockers of human SENP8 peptidase activity – biochemical, luminescence, primary screen (AID 2540)
test.conditions: purified SENP8, Z-RLRGG-aminoluciferin cleavage, at 10 µM
The whole screen tested about 330,000 compounds, of which about 4,100 (1.2%) were called active. No stated cut-off is given here; in the data, active means inhibition above about 50%; inactive means the rest. For the sample, actives were picked, then their nearest neighbours and some compounds at random.
Respond using exactly one of the listed classes: active, inactive

molecule | assigned.class
CC(C)(C)OC(=O)C[C@@H]1C/C=C\C[C@H](CC(=O)N[C@@H](CO)Cc2ccccc2)C(=O)N[C@H](Cc2ccccc2)COC1=O | inactive
Fc1ccccc1-c1cc2cc3c(cc2cn1)OCO3 | active

Any idea what this test logged for Cc1ccc(N2CC(C(=O)Nc3cc(Cl)ccc3-n3cncn3)CC2=O)cc1 (stereo not given) ? inactive

Any idea what this test logged for O=S(=O)(NCC1CCCO1)c1cnc(Cl)c(Cl)c1 (stereo not given) ? inactive

Any idea what this test logged for C[C@@H]1CC[C@]2(O[C@@H](CCO)C[C@H](O)[C@H]2O)O1 ? inactive

====

system: Sentrin-specific protease 8 (Homo sapiens)
test.description: blockers of human SENP8 peptidase activity – biochemical, luminescence, primary screen (AID 2540)
test.conditions: purified SENP8, Z-RLRGG-aminoluciferin cleavage, at 10 µM, active compounds read high
Hit rate of the full screen: of about 330,000 compounds, about 4,100 (1.2%) were called active. Shown is part of a subset that was picked to be rich in actives.
Measured inhibition, listed per entry for reference.
Numeric only. Scale: %

Some entries whose results are on file:
mol | scale.unit | inhibition
Fc1ccc2nc(-c3ccccc3)nc(SCc3nnc(-c4ccccc4)o3)c2c1 | % | 9.5
O=C(NCc1cccnc1)c1cccc(-c2cc3ccccc3oc2=O)c1 | % | -8.55
O=C(O)c1ccc(N/N=C/c2ccc3ncccc3c2)cc1 | % | 97.1
CCn1c2ccccc2c2cc(NC(=O)Nc3ccc([N+](=O)[O-])cc3C)ccc21 | % | -10.4

Look up inhibition: N#Cc1c(N2CCCCC2)nc(N)c2c(N)nc(SCC(=O)O)cc12 70.8

Look up inhibition: N#Cc1ccc(S(=O)(=O)NCC(=O)OCC(=O)NCCc2ccccc2)cc1 2.9

Look up inhibition: CC[N+](C)(CC)CCC[n+]1c(-c2ccccc2)c2cc(N)ccc2c2ccc(N)cc21 96.5

Look up inhibition: Cc1ccc(/C=C2/SC(=S)N(CCC(=O)NCCCN3CCOCC3)C2=O)cc1 -1.52

Look up inhibition: Nc1ncc(-c2cc3ccccc3oc2=O)s1 84

Look up inhibition: COc1ccc(/C=C2\SC(=S)N(CC(=O)NNC(=O)c3ccncc3)C2=O)cc1 -3.25

====

system: Sentrin-specific protease 8 (Homo sapiens) (UniProt Q96LD8)
test.description: blockers of human SENP8 peptidase activity – biochemical, luminescence, primary screen (AID 2540)
test.conditions: purified SENP8, Z-RLRGG-aminoluciferin cleavage, at 10 µM, active compounds read high
The whole screen tested about 330,000 compounds, of which about 4,100 (1.2%) were called active. The sample as a whole holds a higher share of actives than the screen did.
Measured inhibition, listed per entry for reference.
Numeric only. Scale: %

molecule | system | inhibition, %
COCCN(CCOC)S(=O)(=O)NC[C@H]1O[C@@H](n2cnc3c(N)ncnc32)[C@H](O)[C@@H]1O | Sentrin-specific protease 8 (Homo sapiens) (UniProt Q96LD8) | 3.39
N/C(=N\OC(=O)c1cc(-c2ccccc2)nc2ccccc12)c1ccncc1 | Sentrin-specific protease 8 (Homo sapiens) (UniProt Q96LD8) | -5.5
Cc1cn(C)c(=O)n(C)c1=O | Sentrin-specific protease 8 (Homo sapiens) (UniProt Q96LD8) | -18.1
O=C(NCC1CCCO1)c1cc2c(s1)CCCC2 (centres undefined) | Sentrin-specific protease 8 (Homo sapiens) (UniProt Q96LD8) | 0.761
COc1ccc2[nH]c(C(=O)Nc3ccccc3Cl)cc2c1 | Sentrin-specific protease 8 (Homo sapiens) (UniProt Q96LD8) | -24.6
O=C(Nc1ccccc1)c1cc2ccccc2[nH]1 | Sentrin-specific protease 8 (Homo sapiens) (UniProt Q96LD8) | 72
O=C(O)CN1C(=O)CC(Cc2ccccc2)C1=O (centres undefined) | Sentrin-specific protease 8 (Homo sapiens) (UniProt Q96LD8) | 4.48
COc1ccc(N(CC(=O)NCCSCc2cccc(Cl)c2)S(C)(=O)=O)cc1 | Sentrin-specific protease 8 (Homo sapiens) (UniProt Q96LD8) | 4.81

Look up inhibition: CN(C)C(=O)c1ccc(NC(=O)COC(=O)c2cc3c(s2)CCCCC3)cc1 -5.57

Look up inhibition: CC(NC(=O)Nc1ccccc1)C(c1cccs1)N1CCN(c2ccccc2)CC1 (centres undefined) -7.79

Look up inhibition: Cc1cc(N=Nc2ccc3ccccc3c2)ccc1O 95.5

Look up inhibition: Cc1ccnc(N2C(=O)c3ccc([N+](=O)[O-])cc3C2=O)c1 6.9

Look up inhibition: O=C(NCCCN1CCCC1=O)C(=O)NCC1OCCN1S(=O)(=O)c1ccc(Br)cc1 (centres undefined) -0.009
